target entity: T1, recombinant human Fc-tagged PSA (Homo sapiens, UniProt P07288)
T1 construct: prostate-specific antigen (PSA), human; also called prostate-specific antigen; recombinant Fc-tagged PSA
T1 sequence (P07288 18-261): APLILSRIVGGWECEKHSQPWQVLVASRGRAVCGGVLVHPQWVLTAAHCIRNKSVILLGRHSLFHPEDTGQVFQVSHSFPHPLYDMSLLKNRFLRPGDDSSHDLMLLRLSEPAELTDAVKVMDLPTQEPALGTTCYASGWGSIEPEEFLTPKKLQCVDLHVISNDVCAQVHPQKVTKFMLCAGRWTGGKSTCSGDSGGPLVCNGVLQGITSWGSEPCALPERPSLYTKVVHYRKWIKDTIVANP
protocol details: ELISA; enzyme immunoassay: recombinant human Fc-tagged PSA coated on the plate (0.1 M NaHCO3 pH 8.6, overnight at 4 C), blocked with 3% BSA in PBS; 250 ng cotinine-conjugated scFv-C kappa fusion protein in 50 ul, 1 h at 37 C; HRP-conjugated anti-cotinine IgG1 or HRP-conjugated anti-human C kappa antibody, TMB, optical density at 450 nm
experimental conditions: both partners purified
measured parameter: binding result

artificial cysteine-mutant scFv L5, scFv-C kappa fusion protein cotinine conjugate (scFv, V domains shown, VL as in m3: GenBank KP764766 with Kabat residue L5 replaced with cysteine; VH as in m2; that it was a cotinine conjugate of the scFv-C kappa protein is inferred from that detection; also called L5 mutant scFv; source: HEK293F, transfected, purified (KappaSelect); conjugated with GMBS-coupled cotinine) VH: AVTLDESGGGLQTPGGALSLVCKASGFTFSSYDMGWVRQAPGKGLEWVAGIDDDGSYPNYGPAVKGRATISRDNGQSTVRLQLNNLRAEDTGTYFCAKGIESDSDGYMTAEEIDAWGHGTEVIVSS VL: ALCQPSSVSANLGGTVKITCSGGYSYYGWYQQKSPGSAPVTVIYESTKRPSNIPSRFSGSTSGSTGTLTITGVQADDAAVYYCGSWDSSSVGIFGAGTTLTVL    binds

Every entry's value here was drawn from paper PMC4713166.
